# experimental protocol: Hydrolytic stability in KPi buffer without thiol (NMR)
# Assay type: physicochemical
# test settings: pH 7.0; over 12 hours; 50 mM KPi; footnote a: crashing out of solution, no degradation product
Recorded % degradation for the following compounds
Give a bare numeral; the unit % is implied.

Example results:
compound	% degradation, %
CS(=O)(=O)c1ncc(-c2ccccc2)cn1	78
CS(=O)(=O)c1nc2ccccc2s1 [compound 9, 2-Methysulfonylbenzothiazole, reference compound]	15
O=S(=O)(CC(F)(F)F)c1ncccn1	100
CS(=O)(=O)c1nccc(N)n1	5

Please look at the following compound next.
Inquiry: Report measured % degradation; entry is COC(=O)c1ccnc(S(C)(=O)=O)n1
Reply text: 77
